system: hsa-mir-191 loop; assay: normalised indicator fluorescence (fraction of RNA + indicator signal without compound); higher = less displacement of indicator (weaker competition); details: compound concentration: 5 uM; 30 min; indicator: TO-PRO-1 0.1 uM; RNA concentration: 0.1 uM
Measurement Type: normalised indicator fluorescence
# answer = number (no unit)

Use the examples below as a reference point.
CCc1oc2ccccc2c1C(=O)c1cc(Br)c(O)c(Br)c1 [Benzbromarone]
0.976
O=c1cc(-c2ccc(O)c(-c3c(O)cc(O)c4c(=O)cc(-c5ccc(O)cc5)oc34)c2)oc2cc(O)cc(O)c12 [Amentoflavone]
0.994
O=C1c2c(O)cc(O)cc2OC(c2ccc(O)c(O)c2)C1O (stereo unspecified) [Taxifolin]
0.994
C[C@H]1[C@H](C)CC[C@]2(C(=O)O)CC[C@]3(C)C(=CC[C@@H]4[C@@]5(C)C[C@@H](O)[C@H](O)[C@@](C)(CO)[C@@H]5CC[C@]43C)[C@H]12 [Asiatic acid]
0.974
Cc1cc(C(C)(C)C)c(O)c(C(C)(C)C)c1
1.01

Exam item: Entry CC1=C[C@]2(O)O[C@@]3(CC2=C(C)C)[C@@H](C)CC[C@@H]13 [Curcumenol] : reported normalised indicator fluorescence = ?
Marked response: 1

----------
Reported normalised indicator fluorescence values for a set of molecules
test system: hsa-mir-21 loop; assay: normalised indicator fluorescence (fraction of RNA + indicator signal without compound); higher = less displacement of indicator (weaker competition); conditions: compound concentration: 5 uM; 30 min; indicator: TO-PRO-1 0.1 uM; RNA concentration: 0.1 uM
# respond with the number and nothing more

COc1ccc(O)cc1
0.99

Exam item: I am curious: what normalised indicator fluorescence value has been reported for O=C(Nc1nc2ccc(NC(=O)C34CC5CC(CC(C5)C3)C4)cc2s1)c1ccccc1 ?
Marked response: 0.991

Exam item: Another molecule to check: COc1c(C)cnc(Cn2cnc3c(Cl)nc(N)nc32)c1C
Marked response: 0.99

----------
In this section, each of the compounds is paired with its reported normalised indicator fluorescence.
tested on: hsa-mir-6850 loop; test: normalised indicator fluorescence (fraction of RNA + indicator signal without compound); higher = less displacement of indicator (weaker competition); details: compound concentration: 5 uM; 30 min; indicator: TO-PRO-1 0.1 uM; RNA concentration: 0.1 uM
// no unit, no text: just the number

N#Cc1c(NC(=O)c2cccc3ccccc23)sc2c1CCCC2
1.08
Fc1ccc(-c2nc3n(c2-c2ccncc2)CCS3)cc1
0.947

Query compound follows.
Exam item: Hello, I am looking for reported normalised indicator fluorescence with hsa-mir-6850 loop for CC(C)c1cc(-c2n[nH]c(=O)n2-c2ccc3c(ccn3C)c2)c(O)cc1O [Ganetespib] . Could you help?
Marked response: 0.915

----------
system: hsa-mir-221 loop; experiment: normalised indicator fluorescence (fraction of RNA + indicator signal without compound); higher = less displacement of indicator (weaker competition); conditions: compound concentration: 5 uM; 30 min; indicator: TO-PRO-1 0.1 uM; RNA concentration: 0.1 uM
Reported normalised indicator fluorescence values for a set of compounds
Could you respond with only the numeric value?

C[C@H](CCC(=O)NCCS(=O)(=O)O)[C@H]1CC[C@H]2[C@@H]3[C@@H](O)C[C@@H]4C[C@H](O)CC[C@]4(C)[C@H]3CC[C@]12C
1.02

Exam item: Given O=C(O)C(O)Cc1ccc(O)c(O)c1 (stereo not drawn) [Sodium Danshensu] , state its recorded normalised indicator fluorescence.
Marked response: 0.976

Exam item: Moving on to the next compound: COC(=O)c1ccc([C@H]2c3[nH]c4ccccc4c3C[C@H](C(=O)OC)N2C(=O)CCl)cc1
Marked response: 0.997
